# assay-text: small-molecule microarray binders of probe aWnt5a, primary screen, biochemical, biotinylated probe, 635/667 nm fluorescence (AID 1113);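 also: score merges 667 nm fluorescence intensity with signal-to-noise per printed feature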
# test-settings: higher = more signal
value-type: composite z-score
# output: bare number, no unit

compound	composite z-score
CN(C)C(=O)[C@@]1(Cc2ccccc2CN=[N+]=[N-])N=C(c2ccc(OCCCO)cc2)O[C@H]1c1ccccc1	0.0077

Reported composite z-score for COc1ccc(CCN2C(=O)[C@@]3(Cc4ccccc42)c2ccccc2C(=O)N(Cc2ccccc2C(F)(F)F)[C@H]3c2ccc(CO)cc2)cc1 : what is it? -0.158

Here is the next compound: CC(C)(C)OC(=O)CC[C@]12N=C(c3ccc(OCCCO)cc3)O[C@H]1c1ccccc1N(CCS(=O)(=O)c1ccccc1)C2=O 0.0706

Here is the next compound: COC(=O)[C@@]1(Cc2ccccc2)[C@H]2c3cc(C(=O)N(C)C)n(CCSCCO)c3C[C@H]2CN1C(=O)c1ccccc1 0.117

Here is the next compound: C=CCC(OC(C)=O)[C@@H]1[C@@H](N(Cc2ccc(-c3ccccc3)cc2)C(=O)Cc2ccc(F)cc2)c2cc(OCCCO)ccc2N1C(=O)c1ccc(-c2ccccc2)cc1 (some centres not stated) -0.1

Here is the next compound: Cc1ccc(S[C@]2(C(=O)NCC(C)C)CC(=O)N(Cc3cc(C(F)(F)F)cc(C(F)(F)F)c3)[C@@H]2c2ccc(CO)cc2I)cc1 -0.166

Here is the next compound: O=C1c2ccccc2[C@](Cc2ccccc2I)(C(=O)NC2CC2)[C@H](c2ccc(CO)cc2)N1C1CCCCC1 -0.176

---

# assay-text: A549 cell viability effects, profiling panel, calcein-AM fluorescence, 48 h, basal (AID 1162); also: test concentration not given here
# test-settings: higher = more signal
value-type: z-score
# output: bare number, no unit

compound	quantitative-result
C=CC[C@]1(C(=O)N2CCCCC2)N=C(c2ccc(OCCCO)cc2)O[C@H]1c1ccccc1	0.396
CC1CC/C=C\[C@H]2OC34C=CCN(Cn5nnc6ccccc65)C(=O)[C@H]3N(C(CO)C(C)C)C(=O)[C@@H]4C2C(=O)O1 (stereo partly drawn)	0.101

Reported z-score for CCOC(=O)C[C@H]1[C@H](OC(=O)c2ccc(C(=O)c3ccccc3)cc2)[C@@H](NC(=O)c2ccc(-c3ccccc3)cc2)c2cc(OCCCO)ccc2N1C(=O)c1ccccc1 : what is it? -0.56

Here is the next compound: COCCOC(=O)N1C(=O)[C@@]2(c3cc(C#CC4=CCCCC4)ccc31)[C@H](C(N)=O)[C@H]1C(=O)O[C@H](c3ccccc3)[C@H](c3ccccc3)N1[C@@H]2c1ccc(OCCO)cc1 -0.0731

Here is the next compound: COC(=O)[C@@]1(Cc2ccccc2)[C@H]2c3cc(C(=O)N4CCCC4)n(Cc4cccc5ccccc45)c3C[C@H]2CN1C(=O)c1ccccc1 -0.692

Here is the next compound: COC(=O)[C@@]1(Cc2ccccc2)[C@H]2c3cc(C(=O)N4CCCC4)n(Cc4nc5ccccc5[nH]4)c3C[C@H]2CN1C(=O)c1ccccc1 -0.579

Here is the next compound: C=CCOC(=O)[C@@H]1[C@H]2C(=O)O[C@H](c3ccccc3)[C@H](c3ccccc3)N2[C@H](c2ccc(OCCOC(=O)[C@@H]3C[C@@H]4C(=O)N[C@@H](CCCC[N+](C)(C)C)C(=O)N4[C@@H]3c3cccc(OCCO)c3)cc2)[C@@]12C(=O)Nc1ccc(I)cc12 -0.477

Here is the next compound: O=C1O[C@@H](c2ccccc2)[C@@H](c2ccccc2)N2[C@@H](c3ccc(OCCO)cc3)[C@]3(C(=O)Nc4ccccc43)[C@@H](C(=O)NC[C@H](O)c3ccccc3)[C@H]12 -0.462

Here is the next compound: C=CCNC(=O)[C@@H]1[C@H]2C(=O)O[C@H](c3ccccc3)[C@H](c3ccccc3)N2[C@H](c2ccccc2OCCO)[C@@]12C(=O)N(C(=O)OCCOC)c1ccc(C#CCNC(N)=O)cc12 0.843

Here is the next compound: C=CC[C@]12N=C(c3ccc(OCCCO)cc3)O[C@H]1c1ccccc1N(Cc1ccccc1)C2=O -0.739

---

# Test system: Human papillomavirus type 1a E7 protein (residues 1-88)
# assay-text: HPV1a E7 small-molecule binders, primary screen, biochemical, small-molecule microarray, residues 1-88, 635 nm (AID 1129)
# test-settings: small-molecule microarray binding, fluorescence 635 nm; higher = more signal
value-type: composite z-score
# output: bare number, no unit

compound	composite z-score
CC(C)N1C(=O)c2ccccc2[C@](C)(C(=O)NCc2ccccc2)[C@@H]1c1ccc(CO)cc1	0.29
O=C1c2ccccc2[C@](Cc2ccccc2I)(C(=O)NC2CC2)[C@H](c2ccc(CO)cc2)N1C1CCCCC1	1.24
[N-]=[N+]=Nc1ccccc1C[C@@]1(C(=O)NCCN2CCOCC2)N=C(c2ccc(OCCCO)cc2)O[C@@H]1c1ccccc1	1.26
[N-]=[N+]=NCc1ccccc1[C@@H]1OC(c2ccc(OCCCO)cc2)=N[C@]1(CCS(=O)(=O)c1ccccc1)C(=O)NCCN1CCOCC1	1.29
C=CCNC(=O)[C@H]1[C@@H]2C(=O)O[C@@H](c3ccccc3)[C@@H](c3ccccc3)N2[C@@H](c2ccc(OCCO)cc2)[C@]12C(=O)Nc1ccc(C#CC3=CCCCC3)cc12	1.09

Reported composite z-score for CN1C(=O)C2C=CC(C(O)Cc3ccccc3)N(Nc3ccccc3)C2C1=O (stereo not drawn) : what is it? 0.257

Here is the next compound: O=C1O[C@H](c2ccccc2)[C@H](c2ccccc2)N2[C@H]1[C@@H](C(=O)O)[C@]1(C(=O)Nc3ccc(C#CC4=CCCCC4)cc31)[C@H]2c1ccccc1OCCO 1.23

Here is the next compound: COc1ccc([Si](C)(C)[C@@H]2[C@@H](CCO)O[C@]3(C(=O)N(Cc4ccc(N5C(=O)COc6ccccc65)cc4)c4ccccc43)[C@H]2C)cc1 1.18

Here is the next compound: O=C(C1N=C(c2ccc(OCCCO)cc2)N(c2ccccc2)O1)N1CCOCC1 (stereo not drawn) 1.2

Here is the next compound: CN1C2C=C(CCCO)C(C3C(=O)N(C(N)=O)C(=O)C32)C1c1ccc(CN2CCCC2)cc1 (stereo not drawn) -0.697

Here is the next compound: [N-]=[N+]=NCc1ccccc1[C@@H]1OC(c2ccc(OCCCO)cc2)=N[C@]1(CCS(=O)(=O)c1ccccc1)C(=O)NCc1ccccc1 1.21

Here is the next compound: COc1cc2c(cc1OC)CN(C(=O)[C@H]1[C@@H]3C(=O)O[C@@H](c4ccccc4)[C@@H](c4ccccc4)N3[C@@H](c3ccc(O)cc3)[C@]13C(=O)Nc1ccc(C#CCNC(N)=O)cc13)CC2 -0.0403

Here is the next compound: [N-]=[N+]=NCc1ccccc1C[C@]1(C(=O)NCC(O)CO)N=C(c2ccc(OCCCO)cc2)O[C@H]1c1ccccc1 (stereo partly drawn) -0.116

Here is the next compound: COc1ccc(C(=O)Nc2ccc(CN3C(=O)[C@@]4(O[C@@H](CC(=O)N5CCC[C@H]5CO)[C@H]([Si](C)(C)c5ccc(OC)cc5)[C@H]4C)c4ccccc43)cc2)cc1 1.2

---

# assay-text: small-molecule microarray binders of probe aDKK1, primary screen, biochemical, biotinylated probe, 635/667 nm fluorescence (AID 1099);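 also: score merges 667nm spot fluorescence with signal to noise across triplicate slides; reference of the scale not given here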
# test-settings: higher = more signal
The following compounds are listed with their measured composite z-score values.
# output: bare number, no unit

compound	composite z-score
CN1C2C=C(CCCO)C(C3C(=O)N(C(N)=O)C(=O)C32)C1c1ccc(CN2CCCC2)cc1 (configuration not stated)	-0.284

Reported composite z-score for COC(=O)[C@@]1(Cc2ccc(OC)cc2)[C@H]2c3cc(C(=O)N(C)C)n(Cc4cccc5ccccc45)c3C[C@H]2CN1C(=O)c1ccccc1 : what is it? 1.8

Here is the next compound: C=CCC(OC(C)=O)[C@@H]1[C@@H](N(Cc2cccc3ccccc23)C(=O)c2ccc(-c3ccccc3)cc2)c2cc(OCCCO)ccc2N1C(=O)Cc1ccc(OC)cc1 (some centres not stated) -0.0675

Here is the next compound: COC(=O)[C@@]1(Cc2ccc(OC)cc2)[C@H]2c3cc(C(=O)N4CCCC4)n(Cc4ccccc4)c3C[C@H]2CN1C(=O)c1ccccc1 2.64

Here is the next compound: COCCOC(=O)N1C(=O)[C@@]2(c3cc(C#CC4(O)CCCCCC4)ccc31)[C@H](c1ccc(O)cc1)N1[C@H](c3ccccc3)[C@H](c3ccccc3)OC(=O)[C@H]1[C@@H]2C(=O)Nc1nc2ccccc2s1 1.17

Here is the next compound: COCCCN1C(=O)[C@@]2(c3ccc([N+](=O)[O-])cc3)CC(=O)N(C3CCCCC3)[C@@H]2c2ccc(CO)cc21 -0.24

Here is the next compound: NCCCCCNC(=O)[C@@H]1C[C@@H]2C(=O)NCC(=O)N2[C@@H]1c1ccc(O)cc1 -0.0246
